test system: ACHN; test: NCI tumour cell line growth inhibition, 48 h
The source made the active and inactive calls. No stated cut-off is given here; in the data, active = GI50 up to about 1.1 µM and inactive = higher.
Recorded GI50, one value per entry.

Worked examples follow.
Entry CCCCOC(=O)C(=O)C(CC(C(=O)Cc1ccccc1)c1ccccc1)C(=O)C=C(C)C (stereo unspecified) has what GI50?
> 100 µM (inactive)

Tell me the measured GI50 of `CCOC(=O)c1ccc(O)cc1` , please.
> 100 µM (inactive)

GET /values?readout=GI50&item= `CCCCCCCC(=O)OC[C@@H](C[As](=O)(O)O)OC(=O)CCCCCCC`
12.7 µM (inactive)

Which measured GI50 value corresponds to `O=c1c2ccccc2nnn1-c1n[nH]c2ccccc12` ?
> 100 µM (inactive)

Given the molecule COc1ccc(C23OCC(Cc4cc(OC)c(OC)cc42)C3COC(C)=O)cc1OC (stereo unspecified) , what is its reported GI50?
> 100 µM (inactive)

Continuing:
I have this molecule here, O=C(O)c1ccccc1C(=O)OCC1CCCN2CCCCC12 (stereo unspecified) , and I need its recorded GI50.
> 100 µM (inactive)

* * *

system: HOP-18; assay: NCI tumour cell line growth inhibition, 48 h
Activity calls are given as the source filed them. No stated cut-off is given here; in the data, active = GI50 up to about 1.1 µM and inactive = higher.
Please reply with one of these outcomes: T = active, F = inactive

So what was the verdict on `CO[C@@]12[C@H](COC(N)=O)C3=C(C(=O)C(C)=C(N)C3=O)N1C[C@@H]1N[C@@H]12` in this test?
T

Tell me the recorded outcome of this test for `Cc1cc(C)nc(NS(=O)(=O)c2ccc(Nc3c4ccccc4nc4c(C(=O)Nc5ccc(S(=O)(=O)Nc6cc(C)on6)cc5)cccc34)cc2)n1` .
F

Can you look up the reported call for `CCOc1ccc2c(c1)[n+]([O-])c(S(=O)(=O)c1ccc(C)cc1)c(N)[n+]2[O-]` for me?
F

Recorded test call requested for `CN(C)c1ccc(/C=C/C(=O)C(C)(C)C)cc1Br`
F

Check the results log: what was the call for `CN=[S+]([O-])(c1ccccc1)c1ccccc1` ?
F

---
What classification did `O=C(O)CSc1ccc2nc3ccccc3c(O)c2c1` end up with in this test?
F

Outcome? COC(=O)CCC(NC(=S)N/N=C(\C)c1cnc2ccccc2n1)C(=O)OC (configuration not stated)
F

# lookup: test call for O=C(Cc1ccccc1)N/N=C(\C1=Nc2ccc([N+](=O)[O-])cc2NC1O)C(O)c1ccc([N+](=O)[O-])cc1 (configuration not stated)
F

* * *

test system: NCI-H226; assay: NCI tumour cell line growth inhibition, 48 h
Activity calls are given as the source filed them. Cut-off read from the data, not from the text of the source: active = GI50 up to about 1.1 µM and inactive = higher.
Here the recorded GI50 is given for each entry.

Enter reported GI50 observed with NCI-H226 for O=C1CSC(c2ccccc2O)N1c1ccc2c(c1)Oc1c(Cl)c3c(c(Cl)c1=N2)Oc1cc(N2C(=O)CSC2c2ccccc2O)ccc1N=3 (centres undefined)
73.6 µM (inactive)

---
So what GI50 did `c1csc(-c2cc(-c3ccsc3)c(-c3ccsc3)s2)c1` get with NCI-H226?
> 10 µM (inactive)

Request: GI50, test system NCI-H226, entry CC1CCCN1CCCOC(=O)c1ccc(OC2C=CCCC2)cc1 (centres undefined)
29.4 µM (inactive)

Item COC(=O)C1(C)OC(C)=NC1(C(=O)OC)C(=O)OC (centres undefined) with NCI-H226 - GI50?
> 100 µM (inactive)

// fetch NCI-H226 GI50 for `C(=N\c1ccc(-c2cc(-c3ccccc3)nc3ccc4ccccc4c23)cc1)/c1ccccc1`
22.3 µM (inactive)

Which measured GI50 belongs to `CC1=C[C@]2(O)C(=O)[C@H](C)C[C@H]3[C@@H](CC[C@@](C)(O)/C=C\2C1=O)C3(C)C` , tested on NCI-H226?
33.7 µM (inactive)

Test system NCI-H226; read-out GI50; what value for `CCCCC#CS(=O)(=O)C(F)(F)F` ?
> 100 µM (inactive)

Lookup: GI50 / NCI-H226 / `CC1C2=CC=C(O2)C(C)(C)C2=CC=C(O2)C(C)(C)C2=CC=C(O2)C(C)(C)C2=CC=C1O2`
> 100 µM (inactive)

Which measured GI50 belongs to `O=C(Sc1c(-c2ccccc2)c(=O)n(-c2ccccc2)c(=S)n1-c1ccccc1)c1ccco1` , tested on NCI-H226?
> 100 µM (inactive)

* * *

system: A498; experiment: NCI tumour cell line growth inhibition, 48 h
Activity calls are given as the source filed them. Cut-off read from the data, not from the text of the source: active = GI50 up to about 1.1 µM and inactive = higher.
Your reply should match one of these outcome classes. true = active, false = inactive

# lookup: test call for COC1/C=C\C=C(/C)C(=O)NC2=CC(=O)C=C(C2=O)C(OC)C(C)CC(OC)C(OC)C(C)/C=C(/C)C1OC(N)=O (stereo unspecified)
false

# lookup: test call for `CCCCCCNC(=S)N/N=C(\C)c1ccccn1`
false

State the result this test recorded for O=[N+]([O-])c1cccc(C2=NOC3C4CCC(C4)C23)c1 (stereo unspecified) .
false

State the result this test recorded for `Cc1nc2c(nc1C)C(=O)C1=C(C2=O)C2C=CC1CC2` .
false

Give the logged outcome of this assay for the following compound: `CSCC[C@@H]1C(=O)N(C)[C@H](C(C)(C)C)N1C(=O)c1ccccc1`
false

Any idea what this test logged for `CC1=C[C@]2(O)C(=O)[C@H](C)C[C@H]3[C@@H](CC[C@@](C)(O)/C=C\2C1=O)C3(C)C` ?
false

---
Tell me the assay call for NC(=O)Cc1nc2c(N)ncnc2n1C1OC(CO)C(O)C1O (stereo unspecified) please.
false

Tell me the recorded outcome of this test for `Cc1cc(N(CCC#N)CCC#N)ccc1/C=C1N=C(/C=C/c2ccccc2)N(c2ccc(S(N)(=O)=O)cc2)C\1=O` .
false

Tell me the recorded outcome of this test for `CN/N=C(/Cc1occc(=O)c1O)C(=O)Nc1ccccc1C` .
false

# fetch the recorded call for `O=[N+]([O-])/C=C/c1cn(CCCCCn2cc(/C=C/[N+](=O)[O-])c3ccccc32)c2ccccc12` here
false

Hi team, can someone confirm the assay call for `O=C(NCCCCCCNC(=O)c1cccc2ccccc12)Nc1cccc2ccccc12` ?
false

Each compound tested received a call. Report the one for CC(=O)OC12c3ccccc3-c3ccccc3C1C1C(=O)OC(=O)C12 (stereo unspecified) .
false

Please let me know the test result on file for Clc1ccc(C(Cc2ccccc2)c2c(Cl)nc(N3CCNCC3)nc2Cl)cc1 (stereo unspecified) .
false

Any idea what this test logged for CCC1=C(C(C)=O)[C@@H]2CCCCC[C@@H](C(=O)OC)C2C1=O (stereo partly specified) ?
false

// outcome(item) with item = `O=S(O)c1cc(Cl)c(O)c(Cl)c1`
false

Would you mind telling me which call this test gave `N#CC1(C#N)C(C#N)(C#N)C12CCCCCC2` ?
false

For `Cc1cc(C)nc(NS(=O)(=O)c2ccc(Nc3c4ccccc4nc4c(C(=O)Nc5ccc(S(=O)(=O)Nc6cc(C)on6)cc5)cccc34)cc2)n1` , what call appears in the results of this test?
false

Tell me the recorded outcome of this test for COc1ccc2oc3c4c2c1CCC4CCC3=O (stereo unspecified) .
false

Could you kindly confirm the outcome this assay logged for `C/C(=N/Nc1nc(C)cc(O)n1)C(=O)O` ?
false

For COc1cccc2c1C(=O)c1c(O)c3c(c(O)c1C2=O)C[C@@](O)(C(C)=O)CC3S(=O)(=O)O (stereo partly specified) , what call appears in the results of this test?
false

* * *

system: SK-MEL-5; assay: NCI tumour cell line growth inhibition, 48 h
The source made the active and inactive calls. Rule as the data show it: active = GI50 up to about 1.1 µM and inactive = higher.
Choose the fitting class; nothing outside active, inactive is accepted.

Consider the worked cases shown below.
Which outcome was assigned to `CN=[S+]([O-])(c1ccccc1)c1ccccc1` in this test?
inactive

// outcome(item) with item = NC(=O)C(Nc1c(Cl)cccc1Cl)c1cc2cc(Br)ccc2nc1Cl (stereo unspecified)
inactive

What classification did `CN(C)c1ccc(/C=C/C(=O)C(C)(C)C)cc1Br` end up with in this test?
inactive

Write down the call the test reported for this compound. Item: NC(=O)Cc1nc2c(N)ncnc2n1C1OC(CO)C(O)C1O (stereo unspecified)
inactive

Any idea what this test logged for `C1=CN2C[n+]3ccc4ccccc4c3N=C2c2ccccc21` ?
active

***
In this assay, the call recorded for `COC(=O)c1c(C)nc(C)c(NO)c1-c1ccccc1C(F)(F)F` was what?
inactive

Look up the recorded call for Cc1ccc(S(=O)(=O)C2=c3ncccc3=C3C(=O)c4ccccc4C(=O)C32)cc1 (stereo unspecified) in this test.
inactive

Query: recorded result category for `CCOC(=O)Cn1c(=O)c2nc(SC)sc2n(CC)c1=S` in this test
inactive

Check the results log: what was the call for COC1OC(COCc2ccc(Cl)cc2)C(OCc2ccc(Cl)cc2)C1N=[N+]=[N-] (stereo unspecified) ?
inactive

Status in this test for `O=C(O)/C=C/C(=O)Nc1nc[nH]n1` ?
inactive

How did this test come out for COCCOCOC(CCCCO)c1cc(C)c(O[Si](C)(C)C(C)(C)C)c(C)c1 (stereo unspecified) ?
inactive

// return assay outcome for `Cc1ccc(N2C(=O)C(=CN)C(=O)N(c3ccc(C)cc3)C2=O)cc1`
inactive

Outcome? `Cn1c(-c2ccc[se]2)ccc1-c1ccc(C=O)[se]1`
inactive

Tell me the recorded outcome of this test for `CCc1nc2ccccc2c(=O)n1/N=C(\N=N\c1ccc(Cl)cc1)c1ccc(N(C)C)cc1` .
inactive

Tell me the assay call for `C(=N\c1ccc(-c2cc(-c3ccccc3)nc3ccc4ccccc4c23)cc1)/c1ccccc1` please.
inactive

What call does the record list for CC[C@H](C)[C@@H]([C@@H](CC(=O)N1CCC[C@H]1[C@H](OC)[C@@H](C)C(=O)NCCc1ccccc1)OC)N(C)C(=O)C(NC(=O)[C@H](C(C)C)N(C)C)C(C)C (stereo partly specified) ?
active

Can you look up the reported call for `COc1ccc(-n2c(=O)n(C)c(=O)n2-c2c(C)c(C)c(C)c(C)c2C)cc1` for me?
inactive

Per the assay record, what outcome was assigned to `CCOC(=O)C(=O)Nc1cc(Cl)ccc1Cl` ?
inactive
